Molecular target: T1, hTNFRII (Sinobioologicals Cat nr10414-H08H) (human, UniProt P20333 23-257)
T1 construct: bought; also called immobilized TNFR2
T1 sequence (looked up): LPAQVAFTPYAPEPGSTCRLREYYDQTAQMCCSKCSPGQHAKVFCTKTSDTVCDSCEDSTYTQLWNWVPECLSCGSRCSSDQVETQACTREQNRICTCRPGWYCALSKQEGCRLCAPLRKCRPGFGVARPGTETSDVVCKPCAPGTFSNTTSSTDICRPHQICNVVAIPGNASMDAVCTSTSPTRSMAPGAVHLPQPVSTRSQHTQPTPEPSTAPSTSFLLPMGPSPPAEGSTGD
Test: blocking ELISA, coated hTNFRII, competitor hTNF-α-bio 5 nM
MEASURED ATTRIBUTE: EC50 (pM)
API: value field is a number in pM; no unit string.

Some solved cases for reference:
INSERT INTO assay_data (binder, assay_result) VALUES
  ('001-E06 (antibody, V domains shown, IgG) VH: EVQLLESGGGLVQPGGSLRLSCAASGFTFSSNYMSWVRQAPGKGLEWVALIWYDGSNKYYADSVKGRFTISRDNSKNTLYLQMNSLRAEDTAVYYCAKDPLFDSWGQGTLVTVSS VL: QSVLTQPPSASGTPGQRVTISCTGRSSNIGAGYDVHWYQQLPGTAPKLLIYDNNKRPSGVPDRFSGSKSGTSASLAISGLRSEDEADYYCAAWDDSLNGPVFGGGTKLTVLG', 300),
  ('005-B02 (antibody, V domains shown, IgG) VH: EVQLLESGGGLVQPGGSLRLSCAASGFTFSDYYMSWIRQAPGKGLEWVALIWYDGGNEYYADSVKGRFTISRDNSKNTLYLQMNSLRAEDTAVYYCVRETGNYGMDVWGQGTLVTVSS VL: QSVLTQPPSASGTPGQRVTISCTGSSSNIGAGYDVHWYQQLPGTAPKLLIYRNNQRPSGVPDRFSGSKSGTSASLAISGLRSEDEADYYCATWDDRVNGPVFGGGTKLTVLG', 200),
  ('001-H10 (antibody, V domains shown, IgG) VH: EVQLLESGGGLVQPGGSLRLSCAASGFTFDDYGMSWVRQAPGKGLEWVSVIYSGGSTYYADSVKGRFTISRDNSKNTLYLQMNSLRAEDTAVYYCARDRSSSWYRDGMDVWGQGTLVTVSS VL: QSVLTQPPSASGTPGQRVTISCTGSSSNIGAGYDVHWYQQLPGTAPKLLIYGNSNRPSGVPDRFSGSKSGTSASLAISGLRSEDEADYYCAAWDDSLSGWVFGGGTKLTVLG', 900);

Kindly review the next binder as well.
Exercise: I would be grateful if you could share the reported EC50 for 001-G10 (antibody, V domains shown, IgG) VH: EVQLLESGGGLVQPGGSLRLSCAASGFTFSAYGMHWVRQAPGKGLEWVAVVSYDGREKHYADSVKGRFTISRDNSKNTLYLQMNSLRAEDTAVYYCARSDGGYDSDSGYYWGQGTLVTVSS VL: QSVLTQPPSASGTPGQRVTISCSGSTSNIGSNFVYWYQQLPGTAPKLLIYDNNKRPSGVPDRFSGSKSGTSASLAISGLRSEDEADYYCSSYAYSDNILFGGGTKLTVLG .
Solution: 1600
